Cas9 with SSAP activity (normalized) for assorted molecules
# Test system: gene editing with Cas9
# ASSAY_TEXT: Screen of 322 new SSAP proteins, gene editing activity with Cas9 (Table 5)
# Type: cell-based
# REPORTED_CONDITIONS: normalized
MEASURED_PARAMETER: Cas9 with SSAP activity (normalized)

MOLECULE: SSAP_62: SEQ ID NO: 231 (protein) SEISKAVATQQNPLAVVARYKRELGTVLPTVLRQDPDRWLMAAENAARKNPDIMAVTKADQGASYMRALVECARLGHEPGSKDFHFIKRGNAISGEESYRGIIKRVLNSGFYRSVVARTVFSNDTYSFDPLTDIVPNHVPAQGDRGKPLSAYAFAVHWDGTPSTVAEATPERIATAKAKSFASDKPTSPWQLPTGVMYRKTAIRELEPYVHVAPEPQPRRHLDGTVGGIPATDFDVDDGDVLDITADQLAEAGEIV
MEASURED_PARAMETER: Cas9 with SSAP activity (normalized)
REPORTED_RESULT: −1.289
//
MOLECULE: SSAP_110: SEQ ID NO: 279; Aneurinibacillus tyrosinisolvens (protein, listed as Aneurinibacillus tyrosinisolvens) SDLKEKLEKRANETEAAPPSPAQTIAAYLKRMEPEIARALPKHMDVERLTRIALTTIRTNPRLLECTVPSLLGAVMQAAQLGLEPGLLGQCYIIPHGREATFIIGYKGMIDLARRSGNIKSIYAHDVRENDEFEYEYGLHPFLKHRPAMTDRGKFIGVYAVAHFNDGGYQFEFMPYEEIERRKLRSRSYKNGPWVTDYEEMAKKTVIRHMFKYLPLSVEIMRSAAQDETVRPDLTSDPVSIYERPIEGKIITAEDVQPEEIPNVPDAEQGDV
MEASURED_PARAMETER: Cas9 with SSAP activity (normalized)
REPORTED_RESULT: −0.477
